# IC50 per record follows
target: PRMT5 (Homo sapiens); construct: purchased Viva (custom protein); assay: PRMT5 biochemical IC50 assay with SAM as cofactor; details: PRMT5, SAM as cofactor; read-out: SAM IC50
Sequence (O14744 whole entry): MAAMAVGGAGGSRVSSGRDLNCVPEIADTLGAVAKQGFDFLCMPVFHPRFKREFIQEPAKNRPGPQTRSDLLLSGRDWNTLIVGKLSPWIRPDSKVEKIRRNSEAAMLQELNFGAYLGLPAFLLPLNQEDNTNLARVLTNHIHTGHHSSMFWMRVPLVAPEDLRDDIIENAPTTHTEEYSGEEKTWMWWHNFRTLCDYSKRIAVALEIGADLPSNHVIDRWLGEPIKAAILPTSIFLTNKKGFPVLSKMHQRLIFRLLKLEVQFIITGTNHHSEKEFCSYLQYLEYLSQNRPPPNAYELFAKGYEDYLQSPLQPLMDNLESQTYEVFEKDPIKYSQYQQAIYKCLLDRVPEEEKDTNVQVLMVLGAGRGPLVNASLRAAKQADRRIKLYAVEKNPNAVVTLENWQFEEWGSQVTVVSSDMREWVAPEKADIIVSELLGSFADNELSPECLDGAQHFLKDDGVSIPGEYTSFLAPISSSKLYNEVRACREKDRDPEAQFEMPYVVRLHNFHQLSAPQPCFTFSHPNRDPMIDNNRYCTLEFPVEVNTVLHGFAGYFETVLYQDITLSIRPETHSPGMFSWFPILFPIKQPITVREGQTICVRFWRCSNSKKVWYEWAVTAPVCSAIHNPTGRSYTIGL
Sequence (Q9BQA1 whole entry partner): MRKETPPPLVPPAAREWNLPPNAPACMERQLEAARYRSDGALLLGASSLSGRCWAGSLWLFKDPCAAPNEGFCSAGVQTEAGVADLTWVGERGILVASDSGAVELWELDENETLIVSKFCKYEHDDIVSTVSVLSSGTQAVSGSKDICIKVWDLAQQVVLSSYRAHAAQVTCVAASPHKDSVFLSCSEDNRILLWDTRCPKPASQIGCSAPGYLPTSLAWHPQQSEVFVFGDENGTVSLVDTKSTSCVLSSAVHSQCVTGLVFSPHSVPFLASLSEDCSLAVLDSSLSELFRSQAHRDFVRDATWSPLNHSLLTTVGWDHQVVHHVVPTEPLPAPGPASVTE
Endpoint name: IC50

Compound	Result
Cc1cc(NC(=O)C(=O)N2C[C@@H](C)CC[C@@H]2c2ccc3[nH]ncc3c2)cnc1C (single isomer, unassigned)	50 to 500 nM
C[C@@H]1CC[C@@H]([C@@H]2CCC(O)C2)N(C(=O)C(=O)Nc2cncc(C(N)=O)c2)C1 (mixture of isomers)	> 500 nM
CO[C@H]1C[C@H](c2ccc3scnc3c2)N(C(=O)C(=O)Nc2cncc(C(N)=O)c2)C[C@H]1C (single isomer, unassigned)	> 500 nM
Cc1cc(NC(=O)C(=O)N2C[C@@H](C)CC[C@@H]2c2cc(F)c(F)c(Cl)c2)cnc1N (single isomer, unassigned)	50 to 500 nM
CCc1cc(NC(=O)C(=O)N2C[C@H](C)CC[C@H]2c2ccc(N3CCC4(CCCN(C)C4)CC3)cc2)cnc1N (single isomer, unassigned)	> 500 nM
CCc1cc(NC(=O)C(=O)N2C[C@@H](C)CC[C@@H]2c2ccc3nn(C4CCN(C)CC4)cc3c2)cnc1N	< 50 nM
CNc1ccc([C@H]2CC[C@H](C)CN2C(=O)C(=O)Nc2cnc(OC)c(C(N)=O)c2)cn1 (single isomer, unassigned)	50 to 500 nM
COc1ncc(NC(=O)C(=O)N2C[C@@H](C)CC[C@@H]2c2ccc3scnc3c2)cc1C(N)=O (single isomer, unassigned)	< 50 nM
Cc1cc([C@H]2CC[C@H](C)CN2C(=O)C(=O)Nc2cncc(C(N)=O)c2)ccc1O (single isomer, unassigned)	> 500 nM
[H][C@]1([C@]2([H])C[C@]3(C[C@H](O)C3)C2)CC[C@H](C)CN1C(=O)C(=O)Nc1cnc(N)c(C)c1 (single isomer, unassigned)	> 500 nM
CC1(C)CCC(c2ccccc2)N(C(=O)C(=O)Nc2cncc(C(N)=O)c2)C1 (stereo not drawn)	> 500 nM
C[C@@H]1CC[C@H](c2ccc(NCC(=O)N(C)C)cc2)N(C(=O)C(=O)Nc2cncc(C(N)=O)c2)C1 (racemic)	50 to 500 nM

src = patent US11999727B2
